Test: Solubility in organic solvents
Format: physicochemical
Settings: organic solvent or mixture, thermodynamic from solid; CH2Cl2; Table 4.3; read-out: Solubility in CH2Cl2
Method: The solubility of DNQ derivatives in organic solvents was determined by measuring the amount of a given solvent required to dissolve a known amount of compound. Solvent was added to the compound in 50 μL aliquots and the slurry was sonicated. […] Solubility was assessed in DMSO, dichloromethane, and 33% methanol in dichloromethane (FIGS. 9, 10, and 11, respectively).
reported_property: solubility (mM)

Cc1cc(=O)[nH]c2c1C(=O)c1c(C)cc(=O)n(C(C)C)c1C2=O : 5.6

(A) Cc1cc(=O)[nH]c2c1C(=O)c1c(C)cc(=O)n(CC3CC3)c1C2=O
(B) Cc1cc(=O)[nH]c2c1C(=O)c1c(C)cc(=O)n(C3CCCCCCC3)c1C2=O
Incoming: For the pair A and B , which entry has the numerically smaller recorded solubility? Let me know the label of the one you choose.
Outgoing: A
